# testName: soluble fraction after stress (log2 fold change); higher = more stays soluble; pooled small domains, quantitative proteomics
# conditionsUsed: stress: 50 degC
experimentalEndpoint: soluble fraction (log2)
Just the number, please, no unit after it.

Q: Quick one: soluble fraction (log2) of "HMPAELGVVVRNANLRSGPGTKYAIVGSAPAGTTVRIAGTNKAGDWYHLSSGRWIAAFLVDRN" ?
A: -0.941

Q: Quick one: soluble fraction (log2) of "HMEGRTVMATTAVNVRSGPGTSYKILGVLYPGHTAQQIGNTRYGWAQVTWKGHTAYIAARYLRDS" ?
A: -2.41

Q: Quick one: soluble fraction (log2) of "HMIQLTDAEFNELVTYIKKNYGINLIKKRLLIEARMYSVLAKHGFTSFTEYINLIKRDPAELNTMLNKLTT" ?
A: -1.72

Q: Quick one: soluble fraction (log2) of "HMVTQVDYGTFLTRIDEGKVKSVEIQDNQIAFTAIDEAGKENIYVTGKVNDPELVDRLLAADIEDFSQVIP" ?
A: 0.12

Q: Quick one: soluble fraction (log2) of "HMKTVPNVEGEKDGTAQSAIESAGLKVGKVTYQYDDNTSKGLVISQSVKGGEKVKPNTAIDLVVSNGPK" ?
A: 0.0173

Q: Quick one: soluble fraction (log2) of "HMEELPIIVAQRFLNIFRQLHIFSDERREAFNKMLLELPPEVKSIFQSLPGGTPLQEYMEDLEQKSK" ?
A: -0.055

Q: Quick one: soluble fraction (log2) of "HMPERLTYVHPDGAEPMRADKALAAFLSGRISRSRLLGSFSAGKVMAGGKPVEKKLLLRAGDALEVELPEP" ?
A: 0.139

Q: Quick one: soluble fraction (log2) of "HMDGVPPAGSRIRLTVSTQVGDKEFEGTLVPPAGVDLLTLKLANGYNLSHSIADVREVVLIEEGLQGEEP" ?
A: -0.0515

Q: Quick one: soluble fraction (log2) of "HMSKIRSEINKFSSDADKPILEWLFERYHWASQWRFVARFSEQRYGVLSYEINRVWEPTIEGRALYDQL" ?
A: -2.34

Q: Quick one: soluble fraction (log2) of "HMILNDRSELLDVVKRVIAANPASVADYRKGKKKVLGFLVGQAMKETKGQADPRILNELFLQELGEN" ?
A: 0.0223

Q: Quick one: soluble fraction (log2) of "HMNLYERFPIHELWKETFNETLDEEEHITFITSEFKPENIVLGQGFIAAPSKKDAVDWLKVIRTVLIFYDS" ?
A: -0.941

Q: Quick one: soluble fraction (log2) of "HMKTERTVRVQDQHLHYTLEEKPIKNVNLRIRPDGSVYVSAPFGTSRTLIDDFVASKSKQILAIQQAQSAM" ?
A: -0.0134

----------
# testName: soluble fraction after stress (log2 fold change); higher = more stays soluble; pooled small domains, quantitative proteomics
# conditionsUsed: stress: 50 degC
soluble fraction (log2) values by entry

Please review the following examples before continuing.
> print(dat)
                         biopolymersequence     experimentalendpoint  resultvalue
1  HMSSLTQREYEIAELVADGLSNKAIAAELSISHTTAARHVANIMNKLGFNSRSQIAAWVADRAQG  soluble fraction (log2)         0.11
2  HMDPTVTFIVQVNGRVRDKITLSSDISENEAKNVALESPKITPHISGKSLSRVIFVPGKLINLVV  soluble fraction (log2)       -0.578
3  HMFFDSDTDIQNALNAENSIKKYQLFRTQTLYNSAQSDIDFVNQPEVKAKLFDALENLKNKLGFLAEPT  soluble fraction (log2)       -0.247

From here, focus on the item given below.
Q: Quick one: soluble fraction (log2) of "HMSKKMLASIFDTISGIGKKRLKKIWDNYTSLNELKDDSLENIYAKTQIPINLITKIKEKLE" ?
A: -0.37
